- Tested on: inducible nitric oxide synthase (iNOS)
- experimentalProtocol: iNOS suppression / NO assay in LPS-stimulated macrophages or RAW264.7 cells (Griess reaction)
- Format: cell-based, mouse
- assaySetup: Mus musculus, RAW264.7, 24 h; at 300 nM; percent of the LPS-stimulated control, lower is better; Table 6; read-out: iNOS suppression
Assign activity at 0.3 µM to each entry below.
Give bare numbers, in %.

CC(C)(C)c1cc(-n2c(C(F)(F)F)nc3cc(C(=O)O)ccc32)cc(C(C)(C)C)c1 [drawing 109]; 45

For every record below, what is its activity at 0.3 µM?
1. CCN(c1cc(C(C)(C)C)cc(C(C)(C)C)c1)c1ccc(C(=O)O)cn1 [drawing 105]
2. CCOc1c(N(CC)c2ccc(C(=O)O)cc2)cc(C(C)(C)C)cc1C(C)(C)C [drawing 107]

Result:
1: 30; 2: 60

Query: Could you share which activity at 0.3 µM value was measured for CC(C)(C)c1cc(N(CC2CC2)c2ccc(C(=O)O)cn2)cc(C(C)(C)C)c1 [drawing 118] ?
Result: 13
